Biological target: Cytochrome P450 3A4 (Homo sapiens)
Sequence (P08684 whole entry): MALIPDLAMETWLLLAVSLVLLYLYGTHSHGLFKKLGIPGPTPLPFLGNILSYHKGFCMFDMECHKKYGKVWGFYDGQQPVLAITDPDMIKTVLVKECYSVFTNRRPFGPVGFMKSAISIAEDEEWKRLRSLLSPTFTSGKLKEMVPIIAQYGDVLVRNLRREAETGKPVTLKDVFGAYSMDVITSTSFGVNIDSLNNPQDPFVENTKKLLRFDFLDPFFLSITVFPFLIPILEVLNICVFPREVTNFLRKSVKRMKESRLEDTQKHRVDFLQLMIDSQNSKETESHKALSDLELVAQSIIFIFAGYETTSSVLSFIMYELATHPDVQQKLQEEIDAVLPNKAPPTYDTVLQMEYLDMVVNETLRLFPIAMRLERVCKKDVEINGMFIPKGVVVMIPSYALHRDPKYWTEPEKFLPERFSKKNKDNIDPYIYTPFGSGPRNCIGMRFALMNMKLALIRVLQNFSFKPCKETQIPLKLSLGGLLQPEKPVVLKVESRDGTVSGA
pIC50: −log10 of the molar value.
measured_endpoint: pIC50

I'm curious: which pIC50 was measured for CC(C)c1cc(Nc2nc(N3CCC[C@H](N)C3)ncc2C(N)=O)cc(C(C)C)n1 tested on Cytochrome P450 3A4 (Homo sapiens)?
< 4.70

---

Experiment: in vivo
Settings: Crl:CD Sprague-Dawley, rat, iv, 1 mg/kg
measured_endpoint: Vd (L/kg)
// note: answer is a bare numeric in L/kg

Value lookup for Vd; key = CC(C)c1cc(Nc2nc(N3CCC[C@H](N)C3)ncc2C(N)=O)cc(C(C)C)n1
18.5

---

As shown below, each of these molecules has a reported microsomal CLint value.
Assay: Drug metabolism in rat microsomes
Type: ADME, Microsome
Details: read-out: Drug metabolism

> print(dat)
                            chemical.string  measured.value
1  CC(C)(C#N)c1cc(Nc2nc(N3CCC[C@H](N)C3)ncc2C(N)=O)cc(C(C)(C)C#N)c1   < 1 µL/min/mg

Which microsomal CLint value belongs to CC(C)c1cc(Nc2nc(N3CCC[C@H](N)C3)ncc2C(N)=O)cc(C(C)C)n1 ?
3 µL/min/mg
